Test system: L. acidophilus NCFM
assay-details: RNA-seq transcriptional analysis of L. acidophilus NCFM growing on plant glycosides
Assay type: cell-based, Lactobacillus acidophilus
condition-details: LBA0897 Putative Cro-like protein, COG K
reported-endpoint: Log2 differential normalized TPM ratio compared to glucose
One number for each entry.

Below are worked cases with known answers.
>>> meas_value("OC[C@H]1O[C@@H](O[C@H]2[C@H](O)[C@@H](O)[C@@H](O)O[C@@H]2CO)[C@H](O)[C@@H](O)[C@H]1O")
"−2.4"
>>> meas_value("OCc1ccccc1O[C@@H]1O[C@H](CO)[C@@H](O)[C@H](O)[C@H]1O")
0.1
>>> meas_value("O=c1ccc2cc(O[C@@H]3O[C@H](CO)[C@@H](O)[C@H](O)[C@H]3O)c(O)cc2o1")
"−0.9"

Form field: reported Log2 differential normalized TPM ratio compared to glucose of N#C[C@H](O[C@@H]1O[C@H](CO[C@@H]2O[C@H](CO)[C@@H](O)[C@H](O)[C@H]2O)[C@@H](O)[C@H](O)[C@H]1O)c1ccccc1 −2.3

###

System: L. acidophilus NCFM
assay-details: RNA-seq transcriptional analysis of L. acidophilus NCFM growing on plant glycosides
Type: cell-based, Lactobacillus acidophilus
condition-details: LBA1459 Galactokinase, COG G
reported-endpoint: Log2 differential normalized TPM ratio compared to glucose
Give bare numbers.

>>> meas_value("OCc1ccccc1O[C@@H]1O[C@H](CO)[C@@H](O)[C@H](O)[C@H]1O")
0.8
>>> meas_value("OC[C@H]1O[C@@H](O[C@H]2[C@H](O)[C@@H](O)[C@@H](O)O[C@@H]2CO)[C@H](O)[C@@H](O)[C@H]1O")
4.6
>>> meas_value("O=c1ccc2cc(O[C@@H]3O[C@H](CO)[C@@H](O)[C@H](O)[C@H]3O)c(O)cc2o1")
2.3

Provide the documented Log2 differential normalized TPM ratio compared to glucose with L. acidophilus NCFM as the system for N#C[C@H](O[C@@H]1O[C@H](CO[C@@H]2O[C@H](CO)[C@@H](O)[C@H](O)[C@H]2O)[C@@H](O)[C@H](O)[C@H]1O)c1ccccc1 1.8

###

System: L. acidophilus NCFM
assay-details: RNA-seq transcriptional analysis of L. acidophilus NCFM growing on plant glycosides
Assay type: cell-based, Lactobacillus acidophilus
condition-details: gene LBA1895 (Hypothetical protein)
Assign Transcripts per million (rpm) to each entry below.
Phrase the answer as number then unit, nothing more needed.

>>> meas_value("N#C[C@H](O[C@@H]1O[C@H](CO[C@@H]2O[C@H](CO)[C@@H](O)[C@H](O)[C@H]2O)[C@@H](O)[C@H](O)[C@H]1O)c1ccccc1")
"152.2 rpm"
>>> meas_value("OC[C@H]1O[C@@H](O[C@H]2[C@H](O)[C@@H](O)[C@@H](O)O[C@@H]2CO)[C@H](O)[C@@H](O)[C@H]1O")
"31.9 rpm"
>>> meas_value("O=c1ccc2cc(O[C@@H]3O[C@H](CO)[C@@H](O)[C@H](O)[C@H]3O)c(O)cc2o1")
"74.5 rpm"

Provide the documented Transcripts per million (rpm) with L. acidophilus NCFM as the system for OCc1ccccc1O[C@@H]1O[C@H](CO)[C@@H](O)[C@H](O)[C@H]1O 46.2 rpm

###

Assign Transcripts per million (rpm) to each entry below.
Tested on: L. acidophilus NCFM
assay-details: RNA-seq transcriptional analysis of L. acidophilus NCFM growing on plant glycosides
Format: cell-based, Lactobacillus acidophilus
condition-details: LBA1457 Galactose-1-epimerase, COG G
Answers are plain numbers, in rpm.

Below are worked cases with known answers.
>>> meas_value("OCc1ccccc1O[C@@H]1O[C@H](CO)[C@@H](O)[C@H](O)[C@H]1O")
55.9
>>> meas_value("O=c1ccc2cc(O[C@@H]3O[C@H](CO)[C@@H](O)[C@H](O)[C@H]3O)c(O)cc2o1")
144.7
>>> meas_value("N#C[C@H](O[C@@H]1O[C@H](CO[C@@H]2O[C@H](CO)[C@@H](O)[C@H](O)[C@H]2O)[C@@H](O)[C@H](O)[C@H]1O)c1ccccc1")
74.9

// moving on: another record for Transcripts per million (rpm)
Form field: reported Transcripts per million (rpm) of OC[C@H]1O[C@@H](O[C@H]2[C@H](O)[C@@H](O)[C@@H](O)O[C@@H]2CO)[C@H](O)[C@@H](O)[C@H]1O 732.6

Each recorded value in this set is attributed to patent US20200222474A1.
